This collection of values is drawn from the RNAGym collection of RNA variant scans (doi:10.7554/elife.80360).

B1: HDV Ribozyme (parent)
chain: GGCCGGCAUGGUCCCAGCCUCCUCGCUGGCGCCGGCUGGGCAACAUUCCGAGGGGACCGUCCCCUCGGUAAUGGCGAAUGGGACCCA

variants of: B1; test: self-cleavage, relative activity (ratio to wild type); higher = more cleavage; co-transcriptional
Metric: self-cleavage
Numbers only.

Consider the reported self-cleavage for these variants:
{"Sequence change": "G34U C64U", "self-cleavage": 0.246}
{"Sequence change": "U23A U37C", "self-cleavage": 1.08}
{"Sequence change": "G17C G52A", "self-cleavage": 0.415}

Quick batch: self-cleavage for everything below.
1. G5U C32A
2. C24U G59C
3. C15G A77U
4. G74A A77G
5. G74A G76A
6. U37A G39A

Result:
1. 0.0875
2. 0.845
3. 0.158
4. 0.332
5. 0.443
6. 0

Hi team, please reply with self-cleavage for each item in this list.
1. G11U C24U
2. G1C G80C

Result:
1. 0.111
2. 0.0475
